# weed suppression rate, Scirpus juncoides per entry
tested on: Scirpus juncoides; test: Test Example 2: herbicidal effect test by treatment during growing period in paddy field; format: in vivo; details: treatment 7 days after sowing, 120 g/10a, evaluated 14 days after treatment
Field: numeric (%). Do not append units.

// worked examples, weed suppression rate, Scirpus juncoides included
{"columns": ["Compound Smiles", "weed suppression rate, Scirpus juncoides [%]"],
 "data": [
  ["Cc1cc(C)c(S(=O)(=O)n2cnn(C(=O)N(c3cccnc3F)C(C)C)c2=O)c(C)c1", 70],
  ["CC(C)N(C(=O)n1ncn(S(=O)(=O)C2CCCCC2)c1=O)c1ccc(Cl)cc1Br", 80],
  ["CC(C)N(C(=O)n1ncn(S(=O)(=O)C2CCCCC2)c1=O)c1ccc(F)cc1", 90],
  ["CC(C)N(C(=O)n1ncn(S(=O)(=O)C2CC2)c1=O)c1ccc(C(F)(F)F)cc1Cl", 90],
  ["CC(C)N(C(=O)n1ncn(S(=O)(=O)C2CC2)c1=O)c1ccc(F)cc1Cl", 90]
]}

Q. Returns the measured weed suppression rate, Scirpus juncoides for the input molecule. Input: CC(C)N(C(=O)n1ncn(S(=O)(=O)C2CC2)c1=O)c1cccc(F)c1F
A. 80

Q. Returns the measured weed suppression rate, Scirpus juncoides for the input molecule. Input: CC(C)N(C(=O)n1ncn(S(=O)(=O)C2CCCCC2)c1=O)c1ccc(Cl)nc1
A. 90

Q. Returns the measured weed suppression rate, Scirpus juncoides for the input molecule. Input: CC(C)N(C(=O)n1ncn(S(=O)(=O)N(C)C)c1=O)c1cccnc1F
A. 70

Q. Returns the measured weed suppression rate, Scirpus juncoides for the input molecule. Input: CC(C)N(C(=O)n1ncn(S(=O)(=O)C2CC2)c1=O)c1ccc(Cl)cc1F
A. 100

Q. Returns the measured weed suppression rate, Scirpus juncoides for the input molecule. Input: CC(C)N(C(=O)n1ncn(S(=O)(=O)N(C)C)c1=O)c1ccc(Cl)nc1Cl
A. 90

###

# Weed suppression rate (%) Monochoria vaginalis per entry
test system: Monochoria vaginalis; assay: Test Example 12: herbicidal effect test by treatment during growing period in paddy field; assay type: in vivo; settings: 120 g/10a; treatment seven days after sowing in flooded paddy pot; assessed 14 days after treatment
Field: numeric (%). Do not append units.

// worked examples, Weed suppression rate (%) Monochoria vaginalis included
{"columns": ["Compound", "Target Or System", "Numeric Readout"],
 "data": [
  ["CC(C)N(C(=O)n1cnn(S(=O)(=O)c2ccc(C(C)(C)C)cc2)c1=O)c1ccc(Cl)cn1 [Compound 11-706]", "Monochoria vaginalis", 80],
  ["Cc1ccc(N(C(=O)n2cnn(S(C)(=O)=O)c2=O)C(C)C)c(F)c1 [Compound 11-26]", "Monochoria vaginalis", 80],
  ["CC(C)N(C(=O)n1cnn(S(=O)(=O)c2ccccc2F)c1=O)c1c(F)cc(F)cc1F [Compound 11-406]", "Monochoria vaginalis", 80],
  ["Cc1ccc(S(=O)(=O)n2ncn(C(=O)N(c3cccc(F)c3)C(C)C)c2=O)cc1 [Compound 11-628]", "Monochoria vaginalis", 80],
  ["CC(C)N(C(=O)n1cnn(S(=O)(=O)c2cccs2)c1=O)c1ccc(C#N)cc1Cl [Compound 11-1044]", "Monochoria vaginalis", 80],
  ["CC(C)N(C(=O)n1cnn(S(=O)(=O)c2cccc(F)c2)c1=O)c1c(F)cc(F)cc1F [Compound 11-442]", "Monochoria vaginalis", 90],
  ["Cc1ccc(N(C(=O)n2cnn(S(=O)(=O)c3ccccc3Cl)c2=O)C(C)C)c(F)c1 [Compound 11-526]", "Monochoria vaginalis", 80],
  ["Cc1ccc(S(=O)(=O)n2ncn(C(=O)N(c3cccc(F)c3F)C(C)C)c2=O)cc1 [Compound 11-636]", "Monochoria vaginalis", 100]
]}

Q. Fill in the recorded Weed suppression rate (%) Monochoria vaginalis for this compound, with Monochoria vaginalis as test system: CC(C)N(C(=O)n1cnn(S(=O)(=O)c2c(F)cccc2F)c1=O)c1c(F)cc(F)cc1F [Compound 11-777]
A. 80

Q. Fill in the recorded Weed suppression rate (%) Monochoria vaginalis for this compound, with Monochoria vaginalis as test system: Cc1cc(C)c(S(=O)(=O)n2ncn(C(=O)N(c3ccc(F)c(F)c3F)C(C)C)c2=O)c(C)c1 [Compound 11-866]
A. 90
